measurementTarget: Gastrin/cholecystokinin type B receptor (Mus musculus, UniProt P56481)
Sequence (P56481 whole entry): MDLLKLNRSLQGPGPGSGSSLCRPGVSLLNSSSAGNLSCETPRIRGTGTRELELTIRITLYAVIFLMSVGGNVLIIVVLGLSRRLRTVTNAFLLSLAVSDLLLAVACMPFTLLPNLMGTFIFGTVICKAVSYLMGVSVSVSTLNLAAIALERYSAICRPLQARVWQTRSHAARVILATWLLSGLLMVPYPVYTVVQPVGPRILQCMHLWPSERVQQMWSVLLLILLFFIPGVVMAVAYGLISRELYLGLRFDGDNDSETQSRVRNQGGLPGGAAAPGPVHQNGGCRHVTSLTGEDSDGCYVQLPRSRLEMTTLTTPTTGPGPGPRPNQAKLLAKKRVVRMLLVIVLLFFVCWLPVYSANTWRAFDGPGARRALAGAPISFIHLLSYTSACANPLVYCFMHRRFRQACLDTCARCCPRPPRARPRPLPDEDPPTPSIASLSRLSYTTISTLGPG
protocolSummary: In vitro binding affinity against Cholecystokinin type B receptor in mouse cerebral cortical membranes using [125I]Tyr(SO3H)27]-CCK-8 binding assay
measuredParameter: IC50 (µM)

O=C(O)c1ccc(NC(=S)NNc2ccc(S(=O)(=O)NCCc3c[nH]c4ccccc34)cc2[N+](=O)[O-])cc1
24

[A] O=C(O)CN(Cc1ccccc1)S(=O)(=O)c1ccc(N/N=C(/S)NC(c2ccccc2)c2ccccc2)c([N+](=O)[O-])c1
[B] O=C(O)CN(CCc1ccccc1)S(=O)(=O)c1ccc(N/N=C(/S)NCCc2c[nH]c3ccccc23)c([N+](=O)[O-])c1
[C] O=C(O)c1cccc(N(Cc2ccccc2)S(=O)(=O)c2ccc(NNC(=S)NCCc3c[nH]c4ccccc34)c([N+](=O)[O-])c2)c1
Asked: Arrange by IC50, high to low. Order the labels as requested and list them.
Given back: B, C, A
(B: 6 µM, C: 4 µM, A: 1.9 µM)

###

measurementTarget: Gastrin/cholecystokinin type B receptor (Mus musculus)
protocolSummary: In vitro binding affinity against Cholecystokinin type B receptor in mouse cerebral cortical membranes using [125I]Tyr(SO3H)27]-CCK-8 binding assay
measuredParameter: IC50 (µM)

Use the examples below as a reference point.
O=C(O)c1cccc(NS(=O)(=O)c2ccc(NNC(=S)NCCc3c[nH]c4ccccc34)c([N+](=O)[O-])c2)c1
3.6
O=C(O)c1cccc(NC(=S)NNc2ccc(S(=O)(=O)NCCc3c[nH]c4ccccc34)cc2[N+](=O)[O-])c1
31

[I] O=C(O)CNS(=O)(=O)c1ccc(NNC(=S)NCCc2c[nH]c3ccccc23)c([N+](=O)[O-])c1
[II] O=C(O)c1ccc(NS(=O)(=O)c2ccc(N/N=C(/S)NCCc3c[nH]c4ccccc34)c([N+](=O)[O-])c2)cc1
Asked: Which value of IC50 is smaller, the one for I or the one for II ? Answer format: the label of the selected item.
Given back: II

[I] O=C(O)CN(Cc1ccccc1)S(=O)(=O)c1ccc(NNC(=S)NCCc2c[nH]c3ccccc23)c([N+](=O)[O-])c1
[II] O=C(O)CN(CCCc1ccccc1)S(=O)(=O)c1ccc(N/N=C(/S)NCCc2c[nH]c3ccccc23)c([N+](=O)[O-])c1
[III] O=C(O)CCN(Cc1ccccc1)S(=O)(=O)c1ccc(NNC(=S)NCCc2c[nH]c3ccccc23)c([N+](=O)[O-])c1
Asked: Could you please sort these 3 entries by IC50 from high to low? Output spec: labels arranged per the requested ranking.
Given back: II, I, III
(II: 6 µM, I: 1.8 µM, III: 0.51 µM)

###

A short record of IC50 observed with Substance-P receptor (Cavia porcellus) follows.
Sequence (P30547 whole entry): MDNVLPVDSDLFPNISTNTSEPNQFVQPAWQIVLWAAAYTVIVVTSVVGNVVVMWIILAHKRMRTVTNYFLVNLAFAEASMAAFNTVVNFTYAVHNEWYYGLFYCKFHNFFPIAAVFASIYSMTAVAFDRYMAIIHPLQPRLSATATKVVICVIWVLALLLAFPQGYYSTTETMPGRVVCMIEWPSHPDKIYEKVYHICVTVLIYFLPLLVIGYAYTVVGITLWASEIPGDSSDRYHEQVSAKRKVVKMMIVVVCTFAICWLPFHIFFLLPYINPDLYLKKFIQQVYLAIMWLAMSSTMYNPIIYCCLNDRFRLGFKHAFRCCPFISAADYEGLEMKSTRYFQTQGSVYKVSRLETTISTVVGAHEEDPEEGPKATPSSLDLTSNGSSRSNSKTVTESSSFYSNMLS
measuredParameter: IC50 (nM)

O=C(NC(c1ccccc1)c1ccccc1)[C@H]1CCCN1/C(S)=N/Nc1ccccc1[N+](=O)[O-]
2310

[P] CSCCNS(=O)(=O)c1ccc(N/N=C(\S)N2CCC[C@H]2C(=O)NC(c2ccccc2)c2ccccc2)c([N+](=O)[O-])c1
[Q] CSCCNS(=O)(=O)c1ccc(N/N=C(\S)N2CCC[C@@H]2C(=O)NC(c2ccccc2)c2ccccc2)c([N+](=O)[O-])c1
Asked: Which of these two has the smaller recorded IC50: P or Q ? Pick one; state its label.
Given back: P
(P: 980 nM, Q: 7930 nM)

Taken from ChEMBL document CHEMBL1134223.
